assay: Cytotoxicity against human Huh7.5 cells assessed as cell viability after 42 hrs by MTS assay; format: cell-based, Huh-7
valueKind: CC50 at 42 h

[[record]]
entrysmiles = "O=C(N/N=C/c1cccc(Br)c1)c1cc(-c2ccc(F)cc2F)ccc1O"
recordedvalue = "< 50 µM"

[[record]]
entrysmiles = "O=C(N/N=C/c1ccc2ccccc2c1)c1cc(-c2ccc(F)cc2F)ccc1O"
recordedvalue = "> 100 µM"

[[record]]
entrysmiles = "O=C(N/N=C/c1cccs1)c1cc(-c2ccc(F)cc2F)ccc1O"
recordedvalue = "> 50 µM"

[[record]]
entrysmiles = "O=C(N/N=C/c1ccc2c(c1)OC(F)(F)O2)c1cc(-c2ccc(F)cc2F)ccc1O"
recordedvalue = "< 50 µM"

[[record]]
entrysmiles = "Cc1ccc(/C=N/NC(=O)c2cc(-c3ccc(F)cc3F)ccc2O)s1"
recordedvalue = "> 50 µM"

[[record]]
entrysmiles = "O=C(N/N=C/c1c(F)cccc1F)c1cc(-c2ccc(F)cc2F)ccc1O"
recordedvalue = "> 100 µM"

[[record]]
entrysmiles = "O=C(N/N=C/c1c(Cl)cccc1Cl)c1cc(-c2ccc(F)cc2F)ccc1O"
recordedvalue = "< 50 µM"

[[record]]
entrysmiles = "O=C(N/N=C/c1ccccc1Cl)c1cc(-c2ccc(F)cc2F)ccc1O"
recordedvalue = "< 50 µM"

[[record]]
entrysmiles = "O=C(N/N=C/c1ccc(Cl)c(Cl)c1)c1cc(-c2ccc(F)cc2F)ccc1O"
recordedvalue = "< 50 µM"

[[record]]
entrysmiles = "O=C(N/N=C/c1ccccn1)c1cc(-c2ccc(F)cc2F)ccc1O"
recordedvalue = "> 100 µM"

[[record]]
entrysmiles = "O=C(N/N=C/c1ccncc1)c1cc(-c2ccc(F)cc2F)ccc1O"
recordedvalue = "> 50 µM"

[[record]]
entrysmiles = "O=C(N/N=C/c1ccc(C(F)(F)F)cc1)c1cc(-c2ccc(F)cc2F)ccc1O"
recordedvalue = "< 50 µM"

[[record]]
entrysmiles = "CCc1ccc(/C=N/NC(=O)c2cc(-c3ccc(F)cc3F)ccc2O)s1"
recordedvalue = "> 50 µM"

